Where these numbers come from: paper PMC10330001

Target: HCoV-NL63 main protease (Human coronavirus NL63)
Sequence (P0C6X5 2940-3242 limits assumed): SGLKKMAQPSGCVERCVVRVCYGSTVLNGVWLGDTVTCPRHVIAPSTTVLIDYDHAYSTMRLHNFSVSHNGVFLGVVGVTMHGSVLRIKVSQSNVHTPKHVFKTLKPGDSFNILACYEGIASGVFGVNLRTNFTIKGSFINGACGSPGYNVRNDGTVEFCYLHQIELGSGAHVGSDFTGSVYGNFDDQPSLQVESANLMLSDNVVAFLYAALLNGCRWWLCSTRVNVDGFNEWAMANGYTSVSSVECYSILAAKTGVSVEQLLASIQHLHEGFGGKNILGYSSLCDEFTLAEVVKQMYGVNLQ
Test: biochemical
Conditions: read-out: HCoV-NL63 IC50
pIC50: −log10 of the molar value.
recorded metric: pIC50

compound="CC(C)C[C@H](NC(=O)OCc1ccccc1)C(=O)N[C@@H](CC1CCNC1=O)C(O)S(=O)(=O)O (stereo partly shown) [GC376, reference compound]" recorded_metric=pIC50 assay_result=6.92

---

Target: SARS-CoV-2 Mpro (Severe acute respiratory syndrome coronavirus 2)
Experiment: biochemical
Format: biochemical
Settings: read-out: SARS-CoV-2 IC50
recorded metric: IC50

query_smiles=O=C(N[C@H]1CCC(=O)N([C@@H](CC2CCCCC2)C(=O)N[C@@H](C[C@@H]2CCNC2=O)C(=O)C(=O)NC2CC2)C1)OCc1ccccc1 recorded_metric=IC50 assay_result="4.43 µM"
query_smiles=CC(C)C[C@@H](C(=O)N[C@H](C=O)C[C@@H]1CCNC1=O)N1C[C@@H](NC(=O)OCc2ccccc2)CC1=O recorded_metric=IC50 assay_result="0.51 µM"
query_smiles=O=C(N[C@H]1CCC(=O)N([C@@H](Cc2cccc(F)c2)C(=O)N[C@@H](C[C@@H]2CCNC2=O)C(=O)C(=O)NC2CC2)C1)OCc1ccccc1 recorded_metric=IC50 assay_result="3.99 µM"
query_smiles=CC(C)C[C@@H](C(=O)N[C@@H](C[C@@H]1CCNC1=O)C(=O)C(=O)NC1CC1)N1C[C@@H](NC(=O)OCc2ccccc2)CCC1=O recorded_metric=IC50 assay_result="3.58 µM"

---

SARS-CoV main protease (Severe acute respiratory syndrome coronavirus) measurements of IC50, listed per entry.
recorded metric: IC50 (nM)

query_smiles=O=C[C@H](C[C@@H]1CCNC1=O)NC(=O)[C@H](CC1CCCCC1)N1C[C@@H](NC(=O)OCc2ccccc2)CCC1=O assay_result=730
query_smiles=O=C[C@H](C[C@@H]1CCNC1=O)NC(=O)[C@H](CC1CC1)N1C[C@@H](NC(=O)OCc2ccccc2)CCC1=O assay_result=250
query_smiles=O=C(N[C@H]1CCC(=O)N([C@@H](CC2CC2)C(=O)N[C@@H](C[C@@H]2CCNC2=O)C(=O)C(=O)NC2CC2)C1)OCc1ccccc1 assay_result=3880
query_smiles=CC(C)C[C@@H](C(=O)N[C@H](C=O)C[C@@H]1CCNC1=O)N1C[C@@H](NC(=O)OCc2ccccc2)CCC1=O assay_result=160
query_smiles=CC(C)C[C@@H](C(=O)N[C@@H](C[C@@H]1CCNC1=O)C(=O)C(=O)NC1CC1)N1C[C@@H](NC(=O)OCc2ccccc2)CC1=O assay_result=2260

---

Biological target: SARS-CoV-2 Mpro (Severe acute respiratory syndrome coronavirus 2, UniProt P0DTD1)
Test: biochemical
Type: biochemical
Output yes for records whose IC50 is lower than 200 nM, no for records at or above 200 nM.

query_smiles=O=C[C@H](C[C@@H]1CCNC1=O)NC(=O)[C@H](CC1CCCCC1)N1C[C@@H](NC(=O)OCc2ccccc2)CCC1=O tgt="SARS-CoV-2 Mpro (Severe acute respiratory syndrome coronavirus 2, UniProt P0DTD1)" label_value=no
query_smiles=CC(C)C[C@@H](C(=O)N[C@H](C=O)C[C@@H]1CCNC1=O)N1C[C@@H](NC(=O)OCc2cc(F)cc(F)c2)CCC1=O tgt="SARS-CoV-2 Mpro (Severe acute respiratory syndrome coronavirus 2, UniProt P0DTD1)" label_value=yes
query_smiles=CC(C)C[C@@H](C(=O)N[C@@H](C[C@@H]1CCNC1=O)C(=O)C(=O)NC1CC1)N1C[C@@H](NC(=O)OCc2ccccc2)CC1=O tgt="SARS-CoV-2 Mpro (Severe acute respiratory syndrome coronavirus 2, UniProt P0DTD1)" label_value=no
query_smiles=O=C(N[C@H]1CCC(=O)N([C@@H](CC2CC2)C(=O)N[C@@H](C[C@@H]2CCNC2=O)C(=O)C(=O)NC2CC2)C1)OCc1ccccc1 tgt="SARS-CoV-2 Mpro (Severe acute respiratory syndrome coronavirus 2, UniProt P0DTD1)" label_value=no
query_smiles=O=C[C@H](C[C@@H]1CCNC1=O)NC(=O)[C@H](CC1CC1)N1C[C@@H](NC(=O)OCc2ccccc2)CCC1=O tgt="SARS-CoV-2 Mpro (Severe acute respiratory syndrome coronavirus 2, UniProt P0DTD1)" label_value=yes
query_smiles=CC(C)C[C@@H](C(=O)N[C@H](C=O)C[C@@H]1CCNC1=O)N1C[C@@H](NC(=O)OCc2ccccc2)CCC1=O tgt="SARS-CoV-2 Mpro (Severe acute respiratory syndrome coronavirus 2, UniProt P0DTD1)" label_value=yes
